target: UniProt:P35968; experiment: Inhibitory concentration against human VEGFR2 kinase
Sequence (P35968 whole entry): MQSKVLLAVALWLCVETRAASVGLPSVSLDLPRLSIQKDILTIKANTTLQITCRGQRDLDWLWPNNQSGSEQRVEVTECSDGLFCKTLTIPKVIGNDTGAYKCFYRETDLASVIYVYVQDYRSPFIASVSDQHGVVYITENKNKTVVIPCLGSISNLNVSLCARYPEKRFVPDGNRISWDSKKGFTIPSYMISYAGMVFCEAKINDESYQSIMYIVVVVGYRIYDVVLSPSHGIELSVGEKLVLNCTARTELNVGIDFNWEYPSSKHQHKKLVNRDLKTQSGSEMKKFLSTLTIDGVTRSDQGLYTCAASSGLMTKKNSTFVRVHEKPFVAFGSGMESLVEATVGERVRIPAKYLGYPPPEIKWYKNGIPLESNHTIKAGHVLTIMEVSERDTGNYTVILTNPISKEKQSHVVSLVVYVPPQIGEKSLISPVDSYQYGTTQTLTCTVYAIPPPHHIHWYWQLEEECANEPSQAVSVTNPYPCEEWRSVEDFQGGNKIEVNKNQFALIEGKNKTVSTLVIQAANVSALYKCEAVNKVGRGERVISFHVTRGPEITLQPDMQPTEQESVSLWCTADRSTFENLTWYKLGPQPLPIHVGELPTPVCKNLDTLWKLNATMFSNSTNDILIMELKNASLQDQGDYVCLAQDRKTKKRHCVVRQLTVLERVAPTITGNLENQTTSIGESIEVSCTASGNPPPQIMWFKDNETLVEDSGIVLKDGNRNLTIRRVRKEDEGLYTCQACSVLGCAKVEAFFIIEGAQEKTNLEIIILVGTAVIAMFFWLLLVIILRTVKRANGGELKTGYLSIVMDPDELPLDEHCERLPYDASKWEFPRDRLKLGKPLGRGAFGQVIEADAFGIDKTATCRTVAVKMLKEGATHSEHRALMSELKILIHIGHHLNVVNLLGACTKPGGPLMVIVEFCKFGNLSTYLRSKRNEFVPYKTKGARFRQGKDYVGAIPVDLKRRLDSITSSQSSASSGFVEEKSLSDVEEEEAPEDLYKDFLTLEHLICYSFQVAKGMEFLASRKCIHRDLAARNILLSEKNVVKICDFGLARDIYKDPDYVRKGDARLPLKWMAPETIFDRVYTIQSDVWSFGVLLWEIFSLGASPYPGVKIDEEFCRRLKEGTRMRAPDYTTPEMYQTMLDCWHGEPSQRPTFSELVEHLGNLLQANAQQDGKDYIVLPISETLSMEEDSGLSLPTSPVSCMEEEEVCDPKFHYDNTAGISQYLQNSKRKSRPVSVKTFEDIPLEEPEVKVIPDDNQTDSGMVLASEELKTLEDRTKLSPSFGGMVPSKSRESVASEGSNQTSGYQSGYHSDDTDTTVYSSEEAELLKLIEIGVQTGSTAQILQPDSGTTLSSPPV
pIC50: −log10 of the molar value.
metric: pIC50

Please review the following examples before continuing.
                                   compound  test_result
0  CN(c1ccc(NC(=O)Nc2cc(C(F)(F)F)ccc2F)cc1)c1ccnc(Nc2ccc(CS(C)(=O)=O)cc2)n1         8.70
1  CCNC(=O)Nc1ccc(N(C)c2ccnc(Nc3ccc(CS(C)(=O)=O)cc3)n2)cc1         7.59
2  CN(c1ccc(NC(=O)Nc2c(Cl)cccc2Cl)cc1)c1ccnc(Nc2cccc(CS(C)(=O)=O)c2)n1 [GW809897X]         7.19
3  CC(=O)c1ccc(NC(=O)Nc2ccc(N(C)c3ccnc(Nc4cccc(CS(C)(=O)=O)c4)n3)cc2)cc1         8.52
4  CN(C)CCNC(=O)Nc1ccc(N(C)c2ccnc(Nc3ccc(CS(C)(=O)=O)cc3)n2)cc1         5.51

(1) CN1CCN(Cc2ccc(NC(=O)Nc3ccc(N(C)c4ccnc(Nc5ccc(CS(C)(=O)=O)cc5)n4)cc3)cc2)CC1
(2) CN(c1ccc(NC(=O)Nc2cc(C(F)(F)F)ccc2F)cc1)c1ccnc(Nc2cccc(CS(C)(=O)=O)c2)n1
In: 1 or 2 : whose pIC50 is greater? Choose, then provide that item's label.
Out: 1
(1: 8.40, 2: 7.46)

###

test system: HUVEC; assay: Inhibitory concentration against human umbilical vein endothelial cells (HUVECs) induced by VEGF; assay type: functional, cell-based
metric: IC50 (nM)
Express your answer in nM, writing the number without its unit.

Please review the following examples before continuing.
>>> df
                                   compound  metric  unit_of_measure  test_result
0  CN(c1ccc(NC(=O)Nc2cc(C(F)(F)F)ccc2F)cc1)c1ccnc(Nc2cccc(CS(C)(=O)=O)c2)n1    IC50               nM            7
1  CN(c1ccc(NC(=O)Nc2cc(C(F)(F)F)ccc2F)cc1)c1ccnc(Nc2cccc(S(N)(=O)=O)c2)n1    IC50               nM           10

In: Any idea what IC50 was measured for CN(C)CCNC(=O)Nc1ccc(N(C)c2ccnc(Nc3ccc(CS(C)(=O)=O)cc3)n2)cc1 ?
Out: 2980

In: Any idea what IC50 was measured for CN(c1ccc(NC(=O)Nc2ccc(OC(F)(F)F)cc2)cc1)c1ccnc(Nc2cccc(S(N)(=O)=O)c2)n1 [GW806742X] ?
Out: 5

In: Any idea what IC50 was measured for CCCCNC(=O)Nc1ccc(N(C)c2ccnc(Nc3cccc(CS(C)(=O)=O)c3)n2)cc1 ?
Out: 2

In: Any idea what IC50 was measured for CN(c1ccc(NC(=O)NCCN2CCOCC2)cc1)c1ccnc(Nc2ccc(CS(C)(=O)=O)cc2)n1 ?
Out: 471

In: Any idea what IC50 was measured for CN(c1ccc(NC(=O)Nc2ccc(OC(F)(F)F)cc2)cc1)c1ccnc(Nc2cccc(CS(C)(=O)=O)c2)n1 ?
Out: 7

In: Any idea what IC50 was measured for CN1CCN(Cc2ccc(NC(=O)Nc3ccc(N(C)c4ccnc(Nc5ccc(CS(C)(=O)=O)cc5)n4)cc3)cc2)CC1 ?
Out: 2

In: Any idea what IC50 was measured for CN(c1ccc(NC(=O)NCCc2ccccc2)cc1)c1ccnc(Nc2cccc(CS(C)(=O)=O)c2)n1 ?
Out: 10
